Listing of recorded Ki by entry.
Biological target: CpNce103p (Candida parapsilosis)
Experiment: biochemical
Type: biochemical

{"molecule": "[N-]=[N+]=NCC(=O)NCCc1ccc(S(N)(=O)=O)cc1 [Compound 10]", "assayed-target": "CpNce103p (Candida parapsilosis)", "Ki (µM)": 1510}
{"molecule": "O=[N+]([O-])c1ccccc1S(=O)(=O)Cl [Compound 3, 2-Nitrobenzenesulfonyl chloride]", "assayed-target": "CpNce103p (Candida parapsilosis)", "Ki (µM)": 869}
{"molecule": "NN=C(c1ccccc1)c1ccccc1 [Compound 7, Benzophenone hydrazone]", "assayed-target": "CpNce103p (Candida parapsilosis)", "Ki (µM)": 302}
{"molecule": "N[C@@H](Cc1c[nH]c2ccccc12)C(=O)O [Compound 15, L-Tryptophan]", "assayed-target": "CpNce103p (Candida parapsilosis)", "Ki (µM)": 842}

* * *

Target: CpNce103p (Candida parapsilosis, UniProt G8B6R8)
Test: biochemical
Assay type: biochemical
Conditions: pH 7.5; read-out: Ki
measure: Ki

{"compound": "NS(N)(=O)=O [Compound 8, Sulfamide]", "reported": "1600 µM"}

* * *

Molecular target: CpNce103p (Candida parapsilosis)
Assay: biochemical
Type: biochemical
pKi: −log10 of the molar value.
Give condition met when the value for pKi is at least 3. Give condition not met when it is less.

{"compound": "NS(=O)(=O)C(F)(F)F [Compound 16, Trifluoromethanesulfonamide]", "class-assignment": "condition met"}
{"compound": "NS(=O)(=O)c1ccc([N+](=O)[O-])cc1 [Compound 13, 4-Nitrobenzenesulfonamide]", "class-assignment": "condition met"}
{"compound": "NCc1ccc(S(N)(=O)=O)cc1 [Compound 2, 4-(aminomethyl)benzenesulfonamide]", "class-assignment": "condition not met"}
{"compound": "NS(=O)(=O)c1cc(C(=O)O)c(NCc2ccccc2)cc1Cl", "class-assignment": "condition met"}

* * *

Molecular target: UniProt:G8B6R8
Assay: biochemical
Format: biochemical
pKi: −log10 of the molar value.
Listing of recorded pKi by entry.
measure: pKi

{"compound": "C#CCCS(N)(=O)=O [Compound 4, but-3-yne-1-sulfonamide]", "assayed-target": "UniProt:G8B6R8", "measure": "pKi", "reported": 3.03}
{"compound": "Nc1ccc(S(N)(=O)=O)cc1 [Compound 9, Sulfanilamide]", "assayed-target": "UniProt:G8B6R8", "measure": "pKi", "reported": 3.08}
{"compound": "NS(=O)(=O)c1ccccc1 [Compound 5, Benzenesulfonamide]", "assayed-target": "UniProt:G8B6R8", "measure": "pKi", "reported": 3.04}

Cited source for all entries: paper PMC12664589
